Tested on: L1210
assay-comment: In vitro antitumor activity against Murine leukemia (L1210) cell lines.
Format: functional, cell-based
conditions: Mus musculus
Catalogue of compounds with associated IC50
Output should be the measured figure followed by the unit it is expressed in.

>>> assay_value("Cn1cc(NC(=O)c2cc(C(=O)N3CC(CCl)c4c3cc(O)c3c4cnn3Cc3ccccc3)nn2C)cc1C(=O)NCCC(=N)N (centres undefined)")
"0.24 µM"
>>> assay_value("Cn1cc(NC(=O)c2cc(NC(=O)c3cc(C(=O)N4CC(CCl)c5c4cc(O)c4c5cnn4Cc4ccccc4)nn3C)cn2C)cc1C(=O)NCCC(=N)N (centres undefined)")
"0.6 µM"
>>> assay_value("Cc1n[nH]c2c(O)cc3c(c12)C(CCl)CN3C(=O)c1cc(C(=O)Nc2cc(C(=O)NCCC(=N)N)n(C)c2)n(C)n1 (centres undefined)")
"0.058 µM"

Okay, now this compound:
[Q] Record lookup: for L1210, what IC50 belongs to Cc1n[nH]c2c(O)cc3c(c12)C(CCl)CN3C(=O)OC(C)(C)C (centres undefined) ?
[A] 0.52 µM

---

Tested on: E6SM
assay-comment: Antiviral activity against […] in E6SM cell cultures
Format: functional
conditions: Homo sapiens
Catalogue of molecules with associated MIC

>>> assay_value("Cc1n[nH]c2c(O)cc3c(c12)C(CCl)CN3C(=O)OC(C)(C)C (stereo unspecified)")
"> 1.6 µg/mL"
>>> assay_value("Nc1nc2c(ncn2COC(CO)CO)c(=O)[nH]1")
"> 100 µg/mL"
>>> assay_value("Nc1nc2c(ncn2COCCO)c(=O)[nH]1")
"> 400 µg/mL"
>>> assay_value("NC(=O)c1ncn([C@@H]2O[C@H](CO)[C@@H](O)[C@H]2O)n1")
"48 µg/mL"
>>> assay_value("Cc1n[nH]c2c(O)cc3c(c12)C(CCl)CN3C(=O)c1cc(C(=O)Nc2cc(C(=O)Nc3cc(C(=O)Nc4cc(C(=O)NCCC(=N)N)n(C)c4)n(C)c3)n(C)c2)n(C)n1.Cl (stereo unspecified)")
"> 0.16 µg/mL"

Okay, now this molecule:
[Q] Any idea what its MIC is? The molecule is O=c1[nH]c(=O)n([C@H]2C[C@H](O)[C@@H](CO)O2)cc1/C=C/Br
[A] > 400 µg/mL

---

Tested on: E6SM
assay-comment: Antiviral activity against herpes simplex virus-1 TK-KOS ACV (HSV-1) in E6SM cell cultures
Type: functional
conditions: Homo sapiens
Catalogue of molecules with associated MIC
Your answer is read as µg/mL, so omit the unit and give the number.

>>> assay_value("Nc1nc2c(ncn2COCCO)c(=O)[nH]1")
48
>>> assay_value("O=c1[nH]c(=O)n([C@H]2C[C@H](O)[C@@H](CO)O2)cc1/C=C/Br")
240
>>> assay_value("Nc1nc2c(ncn2COC(CO)CO)c(=O)[nH]1")
1.92

Okay, now this molecule:
[Q] Record lookup: for E6SM, what MIC belongs to NC(=O)c1ncn([C@@H]2O[C@H](CO)[C@@H](O)[C@H]2O)n1 ?
[A] 240

---

Tested on: L1210
assay-comment: In vitro antitumor activity against Murine leukemia (L1210) cell lines.
Assay type: functional, cell-based
conditions: Mus musculus
measure: IC50 (nM)
Your answer is read as nM, so omit the unit and give the number.

// below: answered molecules
>>> assay_value("Cc1n[nH]c2c(O)cc3c(c12)C(CCl)CN3C(=O)c1cc(C(=O)Nc2cc(C(=O)Nc3cc(C(=O)Nc4cc(C(=O)NCCC(=N)N)n(C)c4)n(C)c3)n(C)c2)n(C)n1.Cl (centres undefined)")
7.4
>>> assay_value("Cc1n[nH]c2c(O)cc3c(c12)C(CCl)CN3C(=O)c1cc(C(=O)Nc2cc(C(=O)Nc3cc(C(=O)NCCC(=N)N)n(C)c3)n(C)c2)n(C)n1 (centres undefined)")
19
>>> assay_value("Cn1cc(NC(=O)c2cc(NC(=O)c3cc(NC(=O)c4cc(C(=O)N5CC(CCl)c6c5cc(O)c5c6cnn5Cc5ccccc5)nn4C)cn3C)cn2C)cc1C(=O)NCCC(=N)N (centres undefined)")
400

Okay, now this molecule:
[Q] Record lookup: for L1210, what IC50 belongs to CC(C)(C)OC(=O)N1CC(CCl)c2c1cc(O)c1c2cnn1Cc1ccccc1 (centres undefined) ?
[A] 2710
